Molecular target: Human immunodeficiency virus type 1 protease (Human immunodeficiency virus 1)
pIC50: −log10 of the molar value.
Assign yes to entries whose pIC50 meets or exceeds 7; assign no to the rest.

smilesrepr=CC(C)[C@H](NC(=O)Cc1ccccc1)C(=O)N[C@@H](Cc1ccccc1)[C@@H](O)CN(Cc1ccccc1)NC(=O)[C@H](NC(=O)Cc1ccccc1)C(C)C categorylabel=no
smilesrepr=CC(C)[C@H](NC(=O)Cc1cccnc1)C(=O)N[C@@H](Cc1ccccc1)[C@@H](O)CN(Cc1ccccc1)NC(=O)[C@H](NC(=O)Cc1cccnc1)C(C)C categorylabel=no
smilesrepr=CC(C)[C@H](N)C(=O)N[C@@H](Cc1ccccc1)[C@@H](O)CN(Cc1ccccc1)NC(=O)[C@H](N)C(C)C categorylabel=no
smilesrepr=CC(C)CN(C[C@H](O)[C@H](Cc1ccccc1)NC(=O)[C@@H](NC(=O)OCc1ccccc1)C(C)C)NC(=O)[C@@H](NC(=O)OCc1ccccc1)C(C)C categorylabel=yes
